- MEASUREMENT TARGET: DLG4_3, P78352
- Sequence (P78352 306-403): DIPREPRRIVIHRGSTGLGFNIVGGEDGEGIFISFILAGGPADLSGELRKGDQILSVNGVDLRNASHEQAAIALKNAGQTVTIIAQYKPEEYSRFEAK
- ASSAY OVERVIEW: holdup assay
- Parameters: key: below the threshold = too weak to quantify, mostly under pKd 3.1 to 4
- ASSAY CONDITIONS: plain residues with an end cap or a label only (N-terminal biotin on a linker: ado-ado)
READOUT NAME: pKd

Examples with answers:
FHSIKQSTAV [CRHR1, P34998]    4.43
STYCDYTIEI [FAM71C, Q8NEG0]    below the threshold
PEKVSNTTVV [IGSF5, Q9NSI5]    below the threshold
TKDKVQETQI [LRRC4, Q9HBW1]    4.17
EFKQTSSFLV [JAM1, Q9Y624]    below the threshold

GET /values?readout=pKd&item= ELKAEDEVQI [DCHS2, Q6V1P9]
below the threshold
